# Tested on: full length human vWF (SEQ ID NO 7)
# PROTOCOL DETAILS: dot blot KD determination and extent of binding, full length human vWF;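 note: dot blot binding of aptamers to full length human vWF across a protein titration, incubated 30 minutes at room temperature in 1x DPBS with BSA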
# CONDITION DETAILS: Phase 1 modification; full length human vWF, dot blot, 8 point protein titration; read-out: KD
Oligonucleotides are written 5' to 3', each unit as a sugar letter and its base; * is a phosphorothioate linkage, no mark a phosphodiester; rarer units and linkages stand in square brackets, end groups in braces. Plain capitals give the bases only. [invdT] = inverted (3'-3') thymidine; d = 2'-deoxy (DNA); m = 2'-O-methyl
I'd appreciate it if you could supply pKd values for the items below.
pKd is a log-scale quantity: -log10 of the concentration expressed in molar.

// returns reported pKd for input ARC1208: ARC1172 with one residue replaced by 2'-O methyl residue (DNA dGdGdCdGdTdGdCdAdGdTdGdCdCdTmUdCdGdGdCdCdGdTdGdCdGdGdTdGdCdCdTdCdCdGdTdCdAdCdGdCdC[invdT]; aptamer)
8.70

Would you kindly repeat that for ARC1213: ARC1172 with one residue replaced by 2'-O methyl residue (DNA dGdGdCdGdTdGdCdAdGdTdGdCdCdTdTdCdGdGdCmCdGdTdGdCdGdGdTdGdCdCdTdCdCdGdTdCdAdCdGdCdC[invdT]; aptamer) ?
8.22

Would you kindly repeat that for ARC1203: ARC1172 with one residue replaced by 2'-O methyl residue (DNA dGdGdCdGdTdGdCdAdGmUdGdCdCdTdTdCdGdGdCdCdGdTdGdCdGdGdTdGdCdCdTdCdCdGdTdCdAdCdGdCdC[invdT]; aptamer) ?
8.52

Would you kindly repeat that for ARC1224: ARC1172 with one residue replaced by 2'-O methyl residue (dGdGdCdGdTdGdCdAdGdTdGdCdCdTdTdCdGdGdCdCdGdTdGdCdGdGdTdGdCdCmUdCdCdGdTdCdAdCdGdCdC[invdT]; aptamer) ?
9.30

Would you kindly repeat that for ARC1211: ARC1172 with one residue replaced by 2'-O methyl residue (DNA dGdGdCdGdTdGdCdAdGdTdGdCdCdTdTdCdGmGdCdCdGdTdGdCdGdGdTdGdCdCdTdCdCdGdTdCdAdCdGdCdC[invdT]; aptamer) ?
8.70

Would you kindly repeat that for ARC1204: ARC1172 with one residue replaced by 2'-O methyl residue (DNA dGdGdCdGdTdGdCdAdGdTmGdCdCdTdTdCdGdGdCdCdGdTdGdCdGdGdTdGdCdCdTdCdCdGdTdCdAdCdGdCdC[invdT]; aptamer) ?
8.70

Would you kindly repeat that for ARC1234: ARC1172 with one residue replaced by 2'-O methyl residue (dGdGdCdGdTdGdCdAdGdTdGdCdCdTdTdCdGdGdCdCdGdTdGdCdGdGdTdGdCdCdTdCdCdGdTdCdAdCdGdCmC[invdT]; aptamer) ?
8.70

Would you kindly repeat that for ARC1216: ARC1172 with one residue replaced by 2'-O methyl residue (DNA dGdGdCdGdTdGdCdAdGdTdGdCdCdTdTdCdGdGdCdCdGdTmGdCdGdGdTdGdCdCdTdCdCdGdTdCdAdCdGdCdC[invdT]; aptamer) ?
9.22

Data origin: patent US7998940B2
